- assayed system: human F508del CFTR (Homo sapiens (Human), UniProt P13569, DEL508-508)
- Sequence (P13569 other isoform, or with tags, fused parts or gaps del F508-F508): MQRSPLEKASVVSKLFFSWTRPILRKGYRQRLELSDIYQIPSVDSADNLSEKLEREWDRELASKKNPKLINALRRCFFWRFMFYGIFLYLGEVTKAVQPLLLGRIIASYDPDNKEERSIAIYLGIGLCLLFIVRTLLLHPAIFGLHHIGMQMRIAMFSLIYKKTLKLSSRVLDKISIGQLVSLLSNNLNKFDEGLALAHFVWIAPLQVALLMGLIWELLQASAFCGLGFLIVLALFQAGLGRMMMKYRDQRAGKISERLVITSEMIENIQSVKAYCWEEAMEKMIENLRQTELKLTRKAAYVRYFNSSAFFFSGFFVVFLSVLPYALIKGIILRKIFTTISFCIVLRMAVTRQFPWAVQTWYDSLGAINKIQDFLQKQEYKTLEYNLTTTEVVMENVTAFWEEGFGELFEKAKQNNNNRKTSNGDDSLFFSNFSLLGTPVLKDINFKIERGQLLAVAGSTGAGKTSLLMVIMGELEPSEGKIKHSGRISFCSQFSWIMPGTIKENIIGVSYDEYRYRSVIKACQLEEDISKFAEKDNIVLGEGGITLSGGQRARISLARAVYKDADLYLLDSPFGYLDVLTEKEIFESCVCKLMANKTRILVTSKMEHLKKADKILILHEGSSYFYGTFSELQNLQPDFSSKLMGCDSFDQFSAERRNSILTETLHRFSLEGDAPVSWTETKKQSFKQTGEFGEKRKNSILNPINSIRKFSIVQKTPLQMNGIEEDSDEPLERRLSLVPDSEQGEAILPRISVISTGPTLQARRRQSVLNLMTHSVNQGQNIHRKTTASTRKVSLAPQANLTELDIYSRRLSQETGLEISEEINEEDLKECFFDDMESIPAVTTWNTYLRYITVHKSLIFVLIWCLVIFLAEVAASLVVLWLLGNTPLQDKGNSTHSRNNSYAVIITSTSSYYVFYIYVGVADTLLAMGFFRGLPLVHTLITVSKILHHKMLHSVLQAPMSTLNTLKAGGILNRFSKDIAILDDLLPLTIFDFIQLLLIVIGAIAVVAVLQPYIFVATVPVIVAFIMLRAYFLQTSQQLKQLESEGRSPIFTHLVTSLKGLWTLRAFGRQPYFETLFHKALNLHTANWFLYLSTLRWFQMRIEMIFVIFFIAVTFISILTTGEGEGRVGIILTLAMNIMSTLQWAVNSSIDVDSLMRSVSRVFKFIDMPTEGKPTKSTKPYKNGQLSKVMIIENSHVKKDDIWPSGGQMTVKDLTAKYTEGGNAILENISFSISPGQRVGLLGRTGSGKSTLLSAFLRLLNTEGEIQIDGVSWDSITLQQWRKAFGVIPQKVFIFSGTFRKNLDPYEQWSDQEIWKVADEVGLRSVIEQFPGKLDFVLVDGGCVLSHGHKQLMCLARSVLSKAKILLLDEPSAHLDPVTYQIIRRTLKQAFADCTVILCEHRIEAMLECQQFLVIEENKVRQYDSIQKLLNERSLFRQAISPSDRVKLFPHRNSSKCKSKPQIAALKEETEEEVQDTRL
- protocol: CFTR-YFP High Throughput Assay (YFP halide flux, FRT cells)
- Format: cell-based
- test conditions: EMax normalized to the positive control; FRT cells expressing human F508del CFTR and YFP; read-out: % Efficacy
quantity measured: Emax

1. Cc1nc2ccc(N(C)C(=O)Cn3nc(-c4cccc(Cl)c4)c4ccc(OC5CCOCC5)cc4c3=O)cc2o1 :: > 80%

Item `Cc1nc2ccc(N(C)C(=O)Cn3nc(-c4cccc(F)c4)c4ccccc4c3=O)cc2o1` has what recorded Emax? 30 to 80%

Item `Cc1nc2ccc(N(C)C(=O)Cn3nc(-c4cccc(Cl)c4)c4ccc(OCC5CC5)cc4c3=O)cc2o1` has what recorded Emax? > 80%

Item `Cc1nc2ccc(N(C(=O)Cn3nc(-c4cccc(Cl)c4)c4ccc(O)cc4c3=O)C3CC3)cc2o1` has what recorded Emax? > 80%

Item `CCOc1cc2c(=O)n(CC(=O)N(C)c3ccc4nc(C)oc4c3)nc(-c3cccc(Cl)c3)c2cc1Cl` has what recorded Emax? > 80%

Item `[2H]C([2H])([2H])N(C(=O)Cn1nc(-c2cccc(Cl)c2)c2ccc(OCC3CC3)cc2c1=O)c1ccc2nc(C)oc2c1` has what recorded Emax? 30 to 80%

Item `COc1ccc2c(-c3cccc(Cl)c3)nn(CC(=O)N(c3ccc4nc(C)oc4c3)C3CC3)c(=O)c2c1` has what recorded Emax? > 80%

Item `CCOc1ccc2c(-c3cccc(F)c3)nn(CC(=O)N(c3ccc4nc(C)oc4c3)C3CC3)c(=O)c2c1` has what recorded Emax? > 80%

Item `Cc1nc2ccc(N(C)C(=O)Cn3nc(-c4cccc(F)c4)c4ccc(OC5CCOCC5)cc4c3=O)cc2o1` has what recorded Emax? > 80%

Item `CCOc1ccc2c(-c3cccc(Cl)c3)nn(CC(=O)N(c3ccc4nc(C)oc4c3)C3CC3)c(=O)c2c1` has what recorded Emax? > 80%

Item `[2H]C([2H])([2H])N(C(=O)Cn1nc(-c2cccc(F)c2)c2ccc(OCC)cc2c1=O)c1ccc2nc(C)oc2c1` has what recorded Emax? > 80%

Item `[2H]C([2H])([2H])N(C(=O)Cn1nc(-c2cccc(Cl)c2)c2ccc(OC(C)C)cc2c1=O)c1ccc2nc(C)oc2c1` has what recorded Emax? 30 to 80%

Item `Cc1nc2ccc(N(C)C(=O)Cn3nc(-c4cccc(Cl)c4)c4ccc(OC(C)C)cc4c3=O)cc2o1` has what recorded Emax? > 80%

Item `[2H]C([2H])([2H])N(C(=O)Cn1nc(-c2cccc(Cl)c2)c2ccc(OC)cc2c1=O)c1ccc2nc(C)oc2c1` has what recorded Emax? > 80%

----------
- assayed system: human F508del CFTR (Homo sapiens (Human), UniProt P13569, DEL508-508)
- protocol: CFTR-YFP High Throughput Assay (YFP halide flux, FRT cells)
- Format: cell-based
- test conditions: EMax normalized to the positive control; FRT cells expressing human F508del CFTR and YFP; read-out: % Efficacy
A collection of compounds and their measured Emax

Answered cases to consult:
1. COc1cc2c(=O)n(CC(=O)N(C)c3ccc4nc(C)oc4c3)nc(-c3cccc(F)c3)c2cc1Cl :: 30 to 80%
2. [2H]C([2H])(C)N(C(=O)Cn1nc(-c2cccc(Cl)c2)c2ccc(OC)cc2c1=O)c1ccc2nc(C)oc2c1 :: > 80%
3. CCOc1cc2c(=O)n(CC(=O)N(C)c3ccc4nc(C)oc4c3)nc(-c3cccc(F)c3)c2cc1Cl :: 30 to 80%
4. Cc1nc2ccc(N(C)C(=O)Cn3nc(-c4cccc(F)c4)c4ccc(OC5CCCCC5)cc4c3=O)cc2o1 :: > 80%
5. COc1ccc2c(-c3cccc(F)c3)nn(CC(=O)N(c3ccc4nc(C)oc4c3)C3CC3)c(=O)c2c1 :: > 80%

Item `Cc1nc2ccc(N(C)C(=O)Cn3nc(-c4cccc(Cl)c4)c4ccccc4c3=O)cc2o1` has what recorded Emax? > 80%

Item `CCOc1ccc2c(-c3cccc(F)c3)nn(CC(=O)N(C)c3ccc4nc(C)oc4c3)c(=O)c2c1` has what recorded Emax? > 80%
